This document collects Kd values reported for BACE1 (Homo sapiens, UniProt P56817).
Where a name gives a salt, the structure may show the parent alone.
One number for each entry, in µM.

Worked examples follow.
> print(dat)
                                   molecule                          study.target  readout.type   u  measured.number
1  CC1(c2cccc(NC(=O)c3cnccn3)c2)COCC(N)=N1 (racemic) [Example 25, hydrochloride]  BACE1 (Homo sapiens, UniProt P56817)            Kd  µM             4.17
2  C[C@@]1(c2cc(NC(=O)c3ncc(Cl)cc3F)ccc2F)COCC(N)=N1 [Example 74, hydrochloride]  BACE1 (Homo sapiens, UniProt P56817)            Kd  µM             0.01
3  C[C@@]1(c2cc(NC(=O)c3ncccc3OCC(F)(F)F)ccc2F)COCC(N)=N1  BACE1 (Homo sapiens, UniProt P56817)            Kd  µM              1.2
4  CC1(c2cccc(NC(=O)c3ccc(OCC(F)(F)F)cn3)c2)COCC(N)=N1 (racemic) [Example 24, hydrochloride]  BACE1 (Homo sapiens, UniProt P56817)            Kd  µM             1.88

Here are 5 molecules. What values of Kd were reported for them?
1. Cc1ccsc1C(=O)Nc1ccc(F)c([C@]2(C)COCC(N)=N2)c1
2. CC1(c2cc(NC(=O)c3ccc(N4CCCC4)cn3)ccc2F)COCC(N)=N1 (racemic)
3. C[C@@]1(c2cc(NC(=O)c3ccc(C#N)cc3F)ccc2F)COCC(N)=N1
4. CC1(c2cccc(NC(=O)c3ccc(OCC(F)F)cn3)c2)COCC(N)=N1 (racemic) [Example 62, hydrochloride]
5. CCC(C)c1cc(Cl)cnc1C(=O)Nc1ccc(F)c([C@]2(C)COCC(N)=N2)c1 (mixture of isomers) [Example 71, hydrochloride]

**A:**
1.82
1.44
0.208
5.52
1.5

* * *

molecular target: BACE1 (Homo sapiens, UniProt P56817); experiment: Cellular Abeta-lowering assay; settings: HEK293 cells stably transfected with human APP wt (APP695), Aβ40 ELISA of supernatant after 18-20 hrs
Sequence (P56817 46-501): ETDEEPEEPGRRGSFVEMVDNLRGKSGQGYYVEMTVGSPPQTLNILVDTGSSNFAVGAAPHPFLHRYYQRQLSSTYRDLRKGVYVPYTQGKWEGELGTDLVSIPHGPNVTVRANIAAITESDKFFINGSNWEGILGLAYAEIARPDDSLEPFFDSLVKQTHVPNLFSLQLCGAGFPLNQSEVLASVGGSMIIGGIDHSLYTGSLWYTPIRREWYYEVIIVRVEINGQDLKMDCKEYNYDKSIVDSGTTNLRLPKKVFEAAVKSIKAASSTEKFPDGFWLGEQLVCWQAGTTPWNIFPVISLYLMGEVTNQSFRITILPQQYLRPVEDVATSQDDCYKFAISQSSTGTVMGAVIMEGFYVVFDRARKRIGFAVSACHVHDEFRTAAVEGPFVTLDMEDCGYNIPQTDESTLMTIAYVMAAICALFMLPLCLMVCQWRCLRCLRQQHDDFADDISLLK
Structures can show the parent of a compound that is named as a salt.
READOUT_TYPE: pIC50
One number for each entry, as −log10 of the molar value.

I would be grateful if you could provide pIC50 for each of the following entries.
1. CC(C)C(=O)Nc1ccc(F)c([C@]2(C)COCC(N)=N2)c1 [Example 88, formate]
2. CC1(c2cc(NC(=O)c3ccc(-c4ccco4)cn3)ccc2F)COCC(N)=N1 (racemic)
3. C[C@@]1(c2cc(NC(=O)c3ccc(F)cn3)ccc2F)COCC(N)=N1
4. NC1=NC(c2cc(NC(=O)c3ccc(Cl)cn3)ccc2F)(C2CC2)COC1 (racemic)
5. Cc1nc(C(=O)Nc2cccc(C3(C)COCC(N)=N3)c2)c(C)o1 (racemic)

**A:**
1: 5.56; 2: 7.82; 3: 7.77; 4: 7.96; 5: 7.39

* * *

biological target: BACE1 (Homo sapiens)
Structures can show the parent of a compound that is named as a salt.
READOUT_TYPE: pKd
Numbers only, as −log10 of the molar value.

Consider the following illustrative entries.
> print(dat)
                                   compound          study.target  readout.type  measured.number
1  CC1(c2cccc(NC(=O)c3ccc(Cl)cc3F)c2)COCC(N)=N1 (racemic)  BACE1 (Homo sapiens)           pKd             5.77
2  CC1(c2cccc(NC(=O)c3ccc(OCc4ccccc4)cn3)c2)COCC(N)=N1 (racemic) [Example 66, hydrochloride]  BACE1 (Homo sapiens)           pKd             6.76
3  CCCCc1ccc(C(=O)Nc2cccc(C3(C)COCC(N)=N3)c2)nc1 (racemic) [Example 32, hydrochloride]  BACE1 (Homo sapiens)           pKd             5.38

Need pKd for each of these compounds.
1. C[C@@]1(c2cc(NC(=O)C3CC(F)(F)C3)ccc2F)COCC(N)=N1
2. C=CCCOc1ccc(C(=O)Nc2cccc(C3(C)COCC(N)=N3)c2)nc1 (racemic)

**A:**
5.02
6.32

Value source: patent US20130196984A1
